// SF-539 GI50 records
MEASUREMENT TYPE: GI50 (µM)

MOLECULE	MEASURED NUMBER
Fc1ccc2[nH]c(-c3cc(-c4ccc5c(c4)OCO5)n[nH]3)nc2c1 [7g]	2.9
COc1cc(-c2cc(-c3nc4ccccc4[nH]3)[nH]n2)cc(OC)c1OC [6f]	5.11
COc1ccc2[nH]c(-c3cc(-c4cc(OC)c(OC)c(OC)c4)n[nH]3)nc2c1 [9f]	2.42
COc1cc(-c2cc(-c3nc4cc(Cl)ccc4[nH]3)[nH]n2)cc(OC)c1OC [8f]	4.66
COc1cc(-c2cc(-c3nc4cc(Cl)c(Cl)cc4[nH]3)[nH]n2)cc(OC)c1OC [10f]	3.28
c1ccc2[nH]c(-c3cc(-c4ccc5c(c4)OCO5)n[nH]3)nc2c1 [6g]	2.71
